Below: a set of entries, each annotated with reported Activity.
System: MCF7
test-description: Induction of apoptosis in human MCF7 cells assessed as dead cells at IC50 after 48 hrs by annexin V-FITC/propidium iodide staining based flow cytometric analysis (reference value: 0.2%)
Type: functional

| compound | Activity / % |
| --- | --- |
| C=C1CC[C@@H]2[C@](C)(CO)[C@H](O)CC[C@@]2(C)[C@@H]1CC1CN(Cc2ccccc2)[C@@]2(C(=O)Nc3ccc(C)cc32)[C@]12C(=O)OC[C@H]2O (stereo not given in full) | 2.2 |
| C=C1CC[C@@H]2[C@](C)(CO)[C@H](O)CC[C@@]2(C)[C@@H]1CC1CN(Cc2ccccc2)[C@@]2(C(=O)Nc3c(F)cccc32)[C@]12C(=O)OC[C@H]2O (stereo not given in full) | 1.4 |
| C=C1CC[C@@H]2[C@](C)(CO)[C@H](O)CC[C@@]2(C)[C@@H]1CC1CN(Cc2ccccc2)[C@@]2(C(=O)Nc3ccc(Cl)cc32)[C@]12C(=O)OC[C@H]2O (stereo not given in full) | 0.2 |
| C=C1CC[C@@H]2[C@](C)(CO)[C@H](O)CC[C@@]2(C)[C@@H]1CC1CN(Cc2ccccc2)[C@@]2(C(=O)Nc3ccc(Br)cc32)[C@]12C(=O)OC[C@H]2O (stereo not given in full) | 0 |
| C=C1CC[C@@H]2[C@](C)(CO)[C@H](O)CC[C@@]2(C)[C@@H]1CC1CN(Cc2ccccc2)[C@@]2(C(=O)c3cccc4cccc2c34)[C@]12C(=O)OC[C@H]2O (stereo not given in full) | 0 |

###

Below: a set of entries, each annotated with reported Activity.
Tested on: MCF7
test-description: Induction of apoptosis in human MCF7 cells assessed as depolarized mitochondrial membrane at IC50 after 24 hrs by JC-1 dye based FACS analysis (reference value: 10%)
Type: functional
reported-property: Activity

| compound | reported-property | result |
| --- | --- | --- |
| C=C1CC[C@@H]2[C@](C)(CO)[C@H](O)CC[C@@]2(C)[C@@H]1CC1CN(Cc2ccccc2)[C@@]2(C(=O)c3cccc4cccc2c34)[C@]12C(=O)OC[C@H]2O (stereo partly specified) | Activity | 83% |
| C=C1CC[C@@H]2[C@](C)(CO)[C@H](O)CC[C@@]2(C)[C@@H]1CC1CN(Cc2ccccc2)[C@@]2(C(=O)Nc3c(F)cccc32)[C@]12C(=O)OC[C@H]2O (stereo partly specified) | Activity | 50% |
| C=C1CC[C@@H]2[C@](C)(CO)[C@H](O)CC[C@@]2(C)[C@@H]1CC1CN(Cc2ccccc2)[C@@]2(C(=O)Nc3ccc(Cl)cc32)[C@]12C(=O)OC[C@H]2O (stereo partly specified) | Activity | 62.3% |
| N#CC(C#N)=NNc1cccc(Cl)c1 [CARBONYL CYANIDE M-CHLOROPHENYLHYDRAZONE] | Activity | 100% |
| C=C1CC[C@@H]2[C@](C)(CO)[C@H](O)CC[C@@]2(C)[C@@H]1CC1CN(Cc2ccccc2)[C@@]2(C(=O)Nc3ccc(Br)cc32)[C@]12C(=O)OC[C@H]2O (stereo partly specified) | Activity | 46.1% |
| C=C1CC[C@@H]2[C@](C)(CO)[C@H](O)CC[C@@]2(C)[C@@H]1CC1CN(Cc2ccccc2)[C@@]2(C(=O)Nc3ccc(C)cc32)[C@]12C(=O)OC[C@H]2O (stereo partly specified) | Activity | 79% |
